Test: DRUGMATRIX: Imidazoline I2, Central radioligand binding (ligand: [3H] Idazoxan)
Assay type: cell membranes, Rattus norvegicus, Wistar, Cerebral cortex, Membrane
Conditions: Not Active = under 50% inhibition at 10 µM
Reported endpoint: Ki

Recorded Ki, per entry:
| Compound | Ki |
| --- | --- |
| NC[C@H]1O[C@H](O[C@H]2[C@H](O)[C@@H](O[C@H]3O[C@H](CO)[C@@H](O)[C@H](N)[C@H]3O)[C@H](N)C[C@@H]2N)[C@H](O)[C@@H](O)[C@@H]1O [KANAMYCIN] | Not Active |
| CC(C(=O)O)c1ccc(CC2CCCC2=O)cc1 (configuration not stated) [LOXOPROFEN] | Not Active |
| CC[C@H]1OC(=O)[C@H](C)[C@@H](O[C@H]2C[C@@](C)(OC)[C@@H](O)[C@H](C)O2)[C@H](C)[C@@H](O[C@@H]2O[C@H](C)C[C@H](N(C)C)[C@H]2O)[C@](C)(O)C[C@@H](C)CN(C)[C@H](C)[C@@H](O)[C@]1(C)O [AZITHROMYCIN] | Not Active |
| CC(=O)OCC(CCn1cnc2cnc(N)nc21)COC(C)=O [FAMCICLOVIR] | Not Active |
| CC(C)(C)c1ccc(S(=O)(=O)/C=C/C#N)cc1 [BAY-11-7085] | Not Active |
| COc1ccc2cc(CCC(C)=O)ccc2c1 [NABUMETONE] | Not Active |

Recorded Ki of COc1ccccc1OCC(O)COC(N)=O (configuration not stated) [METHOCARBAMOL] , please.
Not Active

# Ki lookup, item O=C(O)C(Cl)(Cl)Cl [TRICHLOROACETIC ACID]
Not Active

Endpoint output: Ki of COc1ccccc1OCC(O)CO (configuration not stated) [GUAIFENESIN] . Value?
Not Active

###

Assay: DRUGMATRIX: Calcium Channel Type L, Phenylalkylamine radioligand binding (ligand: [3H] (-)-Desmethoxyverapamil (D-888))
Format: cell membranes, Rattus norvegicus, Wistar, Brain, Membrane
Details: Not Active = under 50% inhibition at 10 µM; read-out: IC50
Entries and their pIC50
Scale note: pIC50 = -log10(concentration in M).

Below, each entry is followed by its recorded pIC50 result.
| Query smiles | pIC50 |
| --- | --- |
| CC[C@H](C)C(=O)O[C@H]1C[C@@H](C)C=C2C=C[C@H](C)[C@H](CC[C@@H]3C[C@@H](O)CC(=O)O3)[C@H]21 | 5.20 |
| C#C[C@]1(O)CC[C@H]2[C@@H]3CCC4=Cc5oncc5C[C@]4(C)[C@H]3CC[C@@]21C | 4.84 |
| C[C@@H]1C[C@H]2[C@@H]3CCC4=CC(=O)C=C[C@]4(C)C3=CC[C@]2(C)[C@H]1C(=O)CN1CCN(c2cc(N3CCCC3)nc(N3CCCC3)n2)CC1 | 5.60 |

Next molecule, pIC50 to be filled in.
So what does the record say about pIC50 for "C#C[C@]1(O)CC[C@H]2[C@@H]3CCc4cc(O)ccc4[C@H]3CC[C@@]21C" ?
5.16

###

Assay: DRUGMATRIX: GABAA, Flunitrazepam, Central radioligand binding (ligand: [3H] Flunitrazepam)
Format: cell membranes, Rattus norvegicus, Wistar, Brain, Membrane
Details: Not Active = under 50% inhibition at 10 µM
Reported endpoint: IC50

Consider the following illustrative entries.
| Molecule | Reported endpoint | Result value |
| --- | --- | --- |
| CCOC(=O)n1ccn(C)c1=S | IC50 | Not Active |
| O=P1(N(CCCl)CCCl)NCCCO1 (stereo unspecified) [CYCLOPHOSPHAMIDE ANHYDROUS] | IC50 | Not Active |
| C[C@H]([C@](O)(Cn1cncn1)c1ccc(F)cc1F)S(C)(=O)=O | IC50 | Not Active |
| CC[C@H]1OC(=O)[C@H](C)[C@@H](O[C@H]2C[C@@](C)(OC)[C@@H](O)[C@H](C)O2)[C@H](C)[C@@H](O[C@@H]2O[C@H](C)C[C@H](N(C)C)[C@H]2O)[C@](C)(OC)C[C@@H](C)C(=O)[C@H](C)[C@@H](O)[C@]1(C)O | IC50 | Not Active |
| CN[C@@H]1[C@H](O)[C@H](NC)[C@H]2O[C@@]3(O)C(=O)C[C@@H](C)O[C@H]3O[C@@H]2[C@H]1O | IC50 | Not Active |

# ---- query molecule ----
Which IC50 is reported for this molecule? "CC[C@H](C)C(=O)O[C@H]1C[C@H](O)C=C2C=C[C@H](C)[C@H](CC[C@@H](O)C[C@@H](O)CC(=O)O)[C@H]21"
Not Active

###

Molecular target: Beta-2 adrenergic receptor (Homo sapiens, UniProt P07550)
Sequence (P07550 whole entry): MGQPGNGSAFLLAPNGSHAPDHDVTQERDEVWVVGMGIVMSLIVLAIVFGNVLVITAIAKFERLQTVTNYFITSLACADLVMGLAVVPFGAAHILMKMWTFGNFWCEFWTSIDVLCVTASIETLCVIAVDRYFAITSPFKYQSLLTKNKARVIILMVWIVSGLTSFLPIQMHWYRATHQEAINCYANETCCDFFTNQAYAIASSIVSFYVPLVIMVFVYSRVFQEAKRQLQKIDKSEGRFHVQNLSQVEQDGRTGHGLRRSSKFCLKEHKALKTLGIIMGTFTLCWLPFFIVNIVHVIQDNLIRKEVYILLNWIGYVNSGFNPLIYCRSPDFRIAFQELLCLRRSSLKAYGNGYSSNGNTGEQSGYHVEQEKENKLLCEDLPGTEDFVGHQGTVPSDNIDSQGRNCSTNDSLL
Experiment: DRUGMATRIX: Adrenergic beta2 radioligand binding (ligand: [3H] CGP-12177)
Format: cell membranes, CHO, Membrane
Conditions: Not Active = under 50% inhibition at 10 µM; read-out: Ki
Reported endpoint: Ki (µM)
Reply with just the number (in µM).

| Compound | Ki (µM) |
| --- | --- |
| CC(CCc1ccc(O)cc1)NCCc1ccc(O)c(O)c1 (configuration not stated) | 1.04 |

Fill blank: measured Ki of the compound "C[C@@H]1C[C@H]2[C@@H]3CCC4=CC(=O)C=C[C@]4(C)C3=CC[C@]2(C)[C@H]1C(=O)CN1CCN(c2cc(N3CCCC3)nc(N3CCCC3)n2)CC1" is ____.
15.6

###

Below: a set of entries, each annotated with reported IC50.
Target: Alpha-2A adrenergic receptor (Homo sapiens); further: in other assays of this panel Not Active means under 50% inhibition at 10 µM
Sequence (P08913 whole entry): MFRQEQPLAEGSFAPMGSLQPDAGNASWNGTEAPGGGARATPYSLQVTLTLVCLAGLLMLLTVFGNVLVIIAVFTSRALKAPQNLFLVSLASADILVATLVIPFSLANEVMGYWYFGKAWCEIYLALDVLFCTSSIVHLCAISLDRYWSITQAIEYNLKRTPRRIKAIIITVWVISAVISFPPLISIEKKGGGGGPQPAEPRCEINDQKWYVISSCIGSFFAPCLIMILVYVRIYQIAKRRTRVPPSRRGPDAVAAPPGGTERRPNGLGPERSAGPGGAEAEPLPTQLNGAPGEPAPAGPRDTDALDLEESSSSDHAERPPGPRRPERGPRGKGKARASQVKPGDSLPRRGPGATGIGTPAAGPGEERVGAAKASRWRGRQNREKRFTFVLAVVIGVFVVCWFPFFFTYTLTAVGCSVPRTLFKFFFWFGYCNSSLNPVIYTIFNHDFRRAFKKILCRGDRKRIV
Format: cell membranes, Sf9, Membrane
Details: read-out: IC50
Numeric only. Scale: nM

Consider the following illustrative entries.
| Compound | Measured target | Result value |
| --- | --- | --- |
| OCCN1CCN(CCCN2c3ccccc3Sc3ccc(C(F)(F)F)cc32)CC1 [FLUPHENAZINE] | Alpha-2A adrenergic receptor (Homo sapiens) | 215 |
| C#CCN(C)[C@H](C)Cc1ccccc1 [SELEGILINE] | Alpha-2A adrenergic receptor (Homo sapiens) | 1800 |
| CC[C@@H](CO)NC(=O)[C@@H]1C=C2c3cccc4c3c(cn4C)C[C@H]2N(C)C1 [METHYSERGIDE] | Alpha-2A adrenergic receptor (Homo sapiens) | 1630 |

The record that follows has no IC50 shown yet.
Which IC50 reading was recorded for the compound C#C[C@]1(O)CC[C@H]2[C@@H]3CCC4=Cc5oncc5C[C@]4(C)[C@H]3CC[C@@]21C [DANAZOL] ?
18300

###

// values below are reported pKi
Molecular target: Beta-1 adrenergic receptor (Homo sapiens)
Sequence (P08588 whole entry): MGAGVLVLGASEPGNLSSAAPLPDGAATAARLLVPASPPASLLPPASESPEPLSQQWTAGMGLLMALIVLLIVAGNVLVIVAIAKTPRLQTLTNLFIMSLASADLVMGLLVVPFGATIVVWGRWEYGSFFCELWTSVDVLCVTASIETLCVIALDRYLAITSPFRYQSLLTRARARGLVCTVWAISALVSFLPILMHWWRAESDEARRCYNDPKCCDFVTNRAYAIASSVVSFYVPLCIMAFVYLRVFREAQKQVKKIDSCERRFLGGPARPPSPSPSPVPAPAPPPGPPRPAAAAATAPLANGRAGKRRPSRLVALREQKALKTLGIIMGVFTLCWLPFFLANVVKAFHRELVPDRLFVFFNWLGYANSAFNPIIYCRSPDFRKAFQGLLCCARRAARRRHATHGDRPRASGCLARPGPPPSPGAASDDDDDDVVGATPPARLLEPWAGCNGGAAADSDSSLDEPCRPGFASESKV
Experiment: DRUGMATRIX: Adrenergic beta1 radioligand binding (ligand: [125I] Cyanopindolol)
Type: cell membranes, CHO-K1, Membrane
Conditions: Not Active = under 50% inhibition at 10 µM; read-out: Ki
Give only the number. pKi is defined as minus log10 of concentration in molar units.

| Compound | Measured target | Result value |
| --- | --- | --- |
| CC(C)C[C@H]1C(=O)N2CCC[C@H]2[C@]2(O)O[C@](NC(=O)[C@@H]3C=C4c5cccc6[nH]c(Br)c(c56)C[C@H]4N(C)C3)(C(C)C)C(=O)N12 | Beta-1 adrenergic receptor (Homo sapiens) | 5.86 |

// returns reported pKi for input CC(CCc1ccc(O)cc1)NCCc1ccc(O)c(O)c1 (configuration not stated)
5.95

###

Target: Mitogen-activated protein kinase 3 (Homo sapiens, UniProt P27361)
Sequence (P27361 whole entry): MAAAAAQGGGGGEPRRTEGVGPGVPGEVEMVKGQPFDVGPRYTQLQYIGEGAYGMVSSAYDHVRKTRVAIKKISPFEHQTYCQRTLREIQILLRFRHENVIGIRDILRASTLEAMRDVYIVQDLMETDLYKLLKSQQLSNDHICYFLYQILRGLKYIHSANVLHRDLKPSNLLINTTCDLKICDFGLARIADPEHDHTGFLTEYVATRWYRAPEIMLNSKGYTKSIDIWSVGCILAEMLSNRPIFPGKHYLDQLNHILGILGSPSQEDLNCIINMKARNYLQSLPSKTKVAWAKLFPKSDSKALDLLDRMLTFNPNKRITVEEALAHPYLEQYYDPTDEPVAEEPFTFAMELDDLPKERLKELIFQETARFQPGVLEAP
Assay: DRUGMATRIX: Protein Serine/Threonine Kinase, ERK1 enzyme inhibition (substrate: Myelin Basic Protein)
Parameters: species or system Escherichia coli
Settings: Not Active = under 50% inhibition at 10 µM

| Substance | Measured target | IC50 |
| --- | --- | --- |
| STANNOUS FLUORIDE | Mitogen-activated protein kinase 3 (Homo sapiens, UniProt P27361) | Not Active |
| INSULIN HUMAN | Mitogen-activated protein kinase 3 (Homo sapiens, UniProt P27361) | Not Active |
| COBALT(II) ACETYLACETONATE | Mitogen-activated protein kinase 3 (Homo sapiens, UniProt P27361) | Not Active |
| POLYVINYL ALCOHOL | Mitogen-activated protein kinase 3 (Homo sapiens, UniProt P27361) | Not Active |
